Value source: the RepoRT retention time repository (doi:10.1007/s00216-015-8540-6)

LC retention time listing for selected compounds.
Experiment: Waters Atlantis T3, 100 × 2.1 mm, 3 µm, 0.1 mL/min, estimated dead time 2.2 min; A: water + 0.01% formic acid; B: methanol + 0.01% formic acid; gradient (min/%B) 0/5 3/5 20/100 29/100
Settings: stereoisomer not certain
Supply the numeric figure in min, leaving out any unit text.

Solved entries (count: 5):
Compound: CCOc1cc(OC)c(OCC)cc1CC(C)N (stereo unspecified)
Value kind: LC retention time
Number: 3.15

Compound: COc1ccc(C(CN(C)C)C2(O)CCCCC2)cc1 (stereo unspecified)
Value kind: LC retention time
Number: 15.7

Compound: CC1=C(C(=O)O)N2C(=O)C(NC(=O)C(N)c3ccc(O)cc3)C2SC1 (stereo unspecified)
Value kind: LC retention time
Number: 11.8

Compound: CN(C)CCC=C1c2ccccc2COc2ccccc21
Value kind: LC retention time
Number: 16.7

Compound: CN1CCC23c4c5ccc(O)c4OC2C(O)C=CC3C1C5 (stereo unspecified)
Value kind: LC retention time
Number: 9.52

Now consider the entry below.
I would be grateful if you could share the reported LC retention time for CN=C(NC#N)NCCSCc1nc[nH]c1C .
11.5
